# System: P12-Ichikawa
# assayProcedure: cell viability relative to DMSO control; higher = less cytotoxic
# testSettings: HPLM + 10% dialyzed FBS; 48 h; 15.4 µM
Entries and their cell viability
State the answer as a number, implicitly in %.

CC1(C)C(N(O)C(=O)Nc2ccc(Cl)cc2)N(c2ccc(Cl)cc2)C(=O)N1CC(=O)N/N=C/C=C/c1ccc([N+](=O)[O-])o1 (stereo not drawn): 103
N#C[C@H](O[C@@H]1O[C@H](CO[C@@H]2O[C@H](CO)[C@@H](O)[C@H](O)[C@H]2O)[C@@H](O)[C@H](O)[C@H]1O)c1ccccc1: 91.7

Can you look up the measured cell viability of CON(C)C(=O)N1/N=C(S[C@@]1(CCCN)C2=CC=CC=C2)/C3=CC(=CC=C3F)F for me?
11.4

Give the measured cell viability of CO/N=C(\C(=O)N[C@@H]1C(=O)N2C(C(=O)OCOC(=O)C(C)(C)C)=C(/C=C\c3scnc3C)CS[C@H]12)c1csc(N)n1 .
89.8

Need cell viability, item C[S+](=O)([O-])c1ccc(Oc2cc(F)cc(C#N)c2)c2c1[C@H](O)C(F)(F)C2
109

====

# Tested on: SEM cells
# assayProcedure: cell viability relative to DMSO control; higher = less cytotoxic
# testSettings: RPMI 5 mM glucose + 10% FBS; 48 h; 0.000781 µM
measureName: cell viability (%)
Just the number in %, nothing appended.

Nc1ncnc2c1nc(Cl)n2[C@@H]1O[C@H](CO)[C@@H](O)[C@H]1O: 120
Cc1cccc(/C=N/Nc2cc(N3CCOCC3)nc(OCCc3ccccn3)n2)c1: 97.8
C[C@@]1(C(=O)Nc2ccc(F)nc2)CCCN1c1nc(Nc2cc(C3CC3)[nH]n2)c2cccn2n1: 56.6
CO/N=C(\C(=O)N[C@@H]1C(=O)N2C(C(=O)OCOC(=O)C(C)(C)C)=C(/C=C\c3scnc3C)CS[C@H]12)c1csc(N)n1: 87.1

Note: attention shifts to another entry.
Provide the documented cell viability with SEM cells as the system for NC(=O)OCC(COC(N)=O)c1ccccc1
119

====

Listing: cell viability of selected compounds
# Test system: NOMO1
# assayProcedure: cell viability relative to DMSO control; higher = less cytotoxic
# testSettings: RPMI 5 mM glucose + 10% dialyzed FBS; 48 h; 15.4 µM
Numbers only; they are read as %.

Below, 4 compounds whose answers are already recorded.
Cc1cccc(/C=N/Nc2cc(N3CCOCC3)nc(OCCc3ccccn3)n2)c1: 18.8
COC1=CC=C2CN(C)CC[C@@]34\C=C/[C@H](O)C[C@@H]3OC1=C24: 108
COc1cccc2c1[C@]13CCN(CC4CC4)[C@H](C2)[C@]1(OC)CCC(=O)C3: 106
Cc1c[nH]c(-c2cnc(NCCNc3ccc(C#N)cn3)nc2-c2ccc(Cl)cc2Cl)n1: 88

For the compound shown here, Cc1onc(-c2ccccc2)c1C(=O)N[C@@H]1C(=O)N2[C@@H]1SC(C)(C)[C@@H]2C(=O)[O-].[Na+] , give the reported cell viability.
67.1

Would you mind telling me what cell viability value was observed for COC(=O)\C1=C\CCN(C)C1 ?
102

GET /values?readout=cell viability&item= Cc1ncc([N+](=O)[O-])n1CC(C)O (configuration not stated)
115

====

In this section, each of the molecules is paired with its reported cell viability.
# Tested on: NOMO1
# assayProcedure: cell viability relative to DMSO control; higher = less cytotoxic
# testSettings: RPMI 5 mM glucose + 10% FBS; 48 h; 0.0211 µM
State the answer as a number, implicitly in %.

So what cell viability did CNC(=O)[C@H](CC/1=C/N=C\2/C=C\C\C=C12)NC(=O)[C@H](CC(C)C)CC(=O)NO get with NOMO1?
102
